From: paper doi:10.1101/112086v2

- TESTED_TARGET: Mps1 kinase domain (Homo sapiens, UniProt P33981, C604W)
- ASSAY_PROCEDURE: microscale thermophoresis, DY-547P1 labelled protein
PROPERTY: pKd
One number for each entry, as −log10 of the molar value.

Short answer for CCc1cccc(CC)c1NC(=O)c1nn(C)c2c1CCc1cnc(Nc3ccc(N4CCN(C)CC4)cc3OC)nc1-2 : pKd was 6.46

----------
- TESTED_TARGET: UniProt:P33981
- Sequence (P33981 1-857): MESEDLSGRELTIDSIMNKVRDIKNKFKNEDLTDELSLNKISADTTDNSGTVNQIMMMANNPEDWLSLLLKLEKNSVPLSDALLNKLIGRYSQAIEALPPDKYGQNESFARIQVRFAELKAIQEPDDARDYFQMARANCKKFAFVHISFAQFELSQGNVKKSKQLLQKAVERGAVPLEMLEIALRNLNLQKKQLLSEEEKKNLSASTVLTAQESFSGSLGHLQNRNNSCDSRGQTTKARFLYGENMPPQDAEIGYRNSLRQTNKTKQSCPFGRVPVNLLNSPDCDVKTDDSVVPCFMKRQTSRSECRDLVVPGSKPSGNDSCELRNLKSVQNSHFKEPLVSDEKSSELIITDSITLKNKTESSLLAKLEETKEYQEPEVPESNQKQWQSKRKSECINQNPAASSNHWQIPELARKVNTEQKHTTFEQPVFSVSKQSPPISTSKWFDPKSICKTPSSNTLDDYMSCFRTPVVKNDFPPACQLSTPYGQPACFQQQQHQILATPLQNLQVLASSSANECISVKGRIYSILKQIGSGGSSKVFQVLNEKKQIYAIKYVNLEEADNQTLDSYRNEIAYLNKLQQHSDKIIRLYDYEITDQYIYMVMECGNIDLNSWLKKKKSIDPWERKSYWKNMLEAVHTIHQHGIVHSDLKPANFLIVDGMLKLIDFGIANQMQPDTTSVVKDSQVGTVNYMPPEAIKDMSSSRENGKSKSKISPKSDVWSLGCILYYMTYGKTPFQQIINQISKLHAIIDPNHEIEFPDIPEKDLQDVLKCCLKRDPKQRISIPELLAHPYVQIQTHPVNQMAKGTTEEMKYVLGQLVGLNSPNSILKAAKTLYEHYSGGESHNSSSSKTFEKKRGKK
PROPERTY: pIC50
Numbers only, as −log10 of the molar value.

Documented pIC50 of CCc1cccc(CC)c1NC(=O)c1nn(C)c2c1CCc1cnc(Nc3ccc(N4CCN(C)CC4)cc3OC)nc1-2 : 8.04
